Source listed as paper PMC10397247.

I'd be grateful if you could share measured interaction score for these entries.
- Assay System: T1, 4H626-bA
- T1 chain: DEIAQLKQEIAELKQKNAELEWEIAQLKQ
- Assay Text: two-hybrid library CCNG1;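 also: natural log of median RNA to DNA barcode read ratio; higher means stronger binding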
Give bare numbers.

# Binder, interaction score
records = [
    ("DKNAQLEQENAELKQKIAELEWEIAQLKQ [4H3298-bA]", -1.12),
    ("DENAQLKQENAELEQKIAELKWKIAQLKQ [4H1710-bA]", -0.621),
    ("DKIAQLKQENAELKQEIAELEWKNAQLKQ [4H2760-bA]", -2.94),
]

Please look at the following binder next.
Give interaction score for DENAQLEQKIAELKQENAELKWKIAQLEQ [4H1373-bA] -1.61
